- Tested on: Pseudomonas aeruginosa
- procedure text: Antibacterial activity Pseudomonas aeruginosa ATCC 9027 assessed as inhibition of bacterial growth incubated for 24 hrs by Muller hinton broth based dilution assay
- Format: functional
# MIC listing for each entry below

{"columns": ["compound", "assayed target", "MIC"],
 "data": [
  ["CCCCCCCCCn1c2ccccc2c2c(OCC3CO3)cccc21 (stereo unspecified)", "Pseudomonas aeruginosa", "> 50 µg/mL"],
  ["CCCCCn1c2ccccc2c2c(OCC(O)CN(Cc3ccccn3)Cc3ccccn3)cccc21 (stereo unspecified)", "Pseudomonas aeruginosa", "> 50 µg/mL"],
  ["CCCCCn1c2ccccc2c2c(OCC3CO3)cccc21 (stereo unspecified)", "Pseudomonas aeruginosa", "> 50 µg/mL"],
  ["CC(C)=CCn1c2ccccc2c2c(OCC(O)CNCc3ccccn3)cccc21 (stereo unspecified)", "Pseudomonas aeruginosa", "> 50 µg/mL"],
  ["O=C(O)c1cn(C2CC2)c2cc(N3CCNCC3)c(F)cc2c1=O", "Pseudomonas aeruginosa", "0.195 µg/mL"],
  ["CCCn1c2ccccc2c2c(OCC(O)CN(Cc3ccccn3)Cc3ccccn3)cccc21 (stereo unspecified)", "Pseudomonas aeruginosa", "> 50 µg/mL"],
  ["CCCCCCCCCn1c2ccccc2c2c(OCC(O)CN(Cc3ccccn3)Cc3ccccn3)cccc21 (stereo unspecified)", "Pseudomonas aeruginosa", "> 50 µg/mL"],
  ["Cn1c2ccccc2c2c(OCC(O)CN(Cc3ccccn3)Cc3ccccn3)cccc21 (stereo unspecified)", "Pseudomonas aeruginosa", "> 50 µg/mL"],
  ["Cn1c2ccccc2c2c(OCC3CO3)cccc21 (stereo unspecified)", "Pseudomonas aeruginosa", "> 50 µg/mL"],
  ["FC(F)(F)CCCn1c2ccccc2c2c(OCC3CO3)cccc21 (stereo unspecified)", "Pseudomonas aeruginosa", "> 50 µg/mL"],
  ["CC(C)=CCn1c2ccccc2c2c(OCC(O)CN(Cc3ccccn3)Cc3ccccn3)cccc21 (stereo unspecified)", "Pseudomonas aeruginosa", "> 50 µg/mL"],
  ["CC(C)=CCn1c2ccccc2c2c(OCC(O)CN(C)C)cccc21 (stereo unspecified)", "Pseudomonas aeruginosa", "> 50 µg/mL"],
  ["CN[C@H](CC(C)C)C(=O)N[C@H]1C(=O)N[C@@H](CC(N)=O)C(=O)N[C@H]2C(=O)N[C@H]3C(=O)N[C@H](C(=O)N[C@H](C(=O)O)c4cc(O)cc(O)c4-c4cc3ccc4O)[C@H](O)c3ccc(c(Cl)c3)Oc3cc2cc(c3O[C@@H]2O[C@H](CO)[C@@H](O)[C@H](O)[C@H]2O[C@H]2C[C@](C)(N)[C@H](O)[C@H](C)O2)Oc2ccc(cc2Cl)[C@H]1O", "Pseudomonas aeruginosa", "> 50 µg/mL"],
  ["OC(COc1cccc2c1c1ccccc1n2CCCC(F)(F)F)CN(Cc1ccccn1)Cc1ccccn1 (stereo unspecified)", "Pseudomonas aeruginosa", "> 50 µg/mL"],
  ["c1ccc2c(c1)[nH]c1cccc(OCC3CO3)c12 (stereo unspecified)", "Pseudomonas aeruginosa", "> 50 µg/mL"],
  ["CCCn1c2ccccc2c2c(OCC3CO3)cccc21 (stereo unspecified)", "Pseudomonas aeruginosa", "> 50 µg/mL"],
  ["CCCCCCCn1c2ccccc2c2c(OCC3CO3)cccc21 (stereo unspecified)", "Pseudomonas aeruginosa", "> 50 µg/mL"],
  ["CCN(CC)CC(O)COc1cccc2c1c1ccccc1n2CC=C(C)C (stereo unspecified)", "Pseudomonas aeruginosa", "> 50 µg/mL"],
  ["CC(C)=CCn1c2ccccc2c2c(OCC3CO3)cccc21 (stereo unspecified)", "Pseudomonas aeruginosa", "> 50 µg/mL"],
  ["CCCCCCCn1c2ccccc2c2c(OCC(O)CN(Cc3ccccn3)Cc3ccccn3)cccc21 (stereo unspecified)", "Pseudomonas aeruginosa", "> 50 µg/mL"],
  ["OC(COc1cccc2[nH]c3ccccc3c12)CN(Cc1ccccn1)Cc1ccccn1 (stereo unspecified)", "Pseudomonas aeruginosa", "> 50 µg/mL"]
]}
